tested on: histone deacetylase (HDAC); test: HDAC inhibition screening assay using an aminocoumarin derivative of an omega-acetylated lysine as substrate; type: biochemical; conditions: compound concentration 10 nM
RECORDED ENDPOINT: Inhibitory effect at 10 nM in % (%)

1. O=C(CCCCCCCOc1cccc2[nH]c3ccccc3c12)NO [Example 4] ... 97
2. O=C(CCCCCCCOc1ccc2c(c1)C(=O)c1ccccc1CO2)NO [Example 1] ... 62
3. O=C(CCCCOc1ccc2c(c1)[nH]c1ccccc12)NO [Example 7] ... 69
4. O=C(CCCCCOc1ccc2c(c1)[nH]c1ccccc12)NO [Example 6] ... 80
5. O=C(CCCCCCCOc1ccc2c(c1)[nH]c1ccccc12)NO [Example 3] ... 86
6. O=C(CCCCCCCOc1ccc2c(c1)C(O)c1ccccc1-2)NO (racemic) [Example 2] ... 79
7. O=C(CCCCCCOc1ccc2c(c1)[nH]c1ccccc12)NO [Example 5] ... 100
